These entries and their values trace back to PubChem BioAssay (NCATS).

Experiment: Viability qHTS for spleen associated tyrosine kinase inhibitor (SYKi) naive MV4-11 cells (AID 1963823); also: nearly all actives have a fitted effect of over 40% in size
Conditions: MV4-11 AML viability, CellTiter-Glo luminescence, 72 h; series mostly up to 45 µM
Experimental: Department of Medicine, Hematology/Oncology University Hospital Frankfurt, Germany. Trials have shown promising clinical activity of the selective SYK inhibitor entospletinib in patients with high expressing HOXA9/MEIS1 acute leukemias. […] 7; Detection; Luminescence; ViewLux plate reader (PerkinElmer). […] 1. Quantitative high-throughput screening (qHTS) of small molecule compounds was conducted on naive SYKi MV4-11 cell line. […] 7. Luminescence was measured on a ViewLux plate reader (PerkinElmer).
Inconclusive results are not listed. The source made the active and inactive calls. Calls follow the shape of the dose curve; as a rule, active = well fitted cell-killing curve with a large enough effect; inconclusive = small, poorly fitted or top-dose-only effect, or effect the other way; inactive = no such curve, though single readings can be large or run the other way.
Outcome codes: true (1) (active), false (0) (inactive)

Molecule: C=CC1(C)C=C2C(=O)CC3C(C)(C)CCCC3(C(=O)O)C2(O)CC1 (stereo unspecified)
Label Value: false (0)
//
Molecule: COc1ccccc1OCCNCC(O)CCOc1cccc2[nH]c3ccccc3c12 (stereo unspecified)
Label Value: true (1)
//
Molecule: O=c1cc(NCCCN[C@@H]2CCOc3c(Br)cc(Br)cc32)[nH]c2ccsc12
Label Value: true (1)
//
Molecule: O=C1OC2(c3ccccc31)c1cc(I)c(O)c(I)c1Oc1c2cc(I)c(O)c1I
Label Value: false (0)
//
Molecule: C/C(=C\CCC(C)CCO)C(=O)OC1(C)CCC2C(C(=O)O)=COC(OC3OC(CO)C(O)C(O)C3O)C21 (stereo unspecified)
Label Value: false (0)
//
Molecule: c1ccc(CC2=NCCN2)cc1
Label Value: false (0)
//
Molecule: CCN(CC)CC(=O)Nc1c(C)cccc1C(=O)OC
Label Value: false (0)
//
Molecule: CCCc1cc(=O)[nH]c(=S)[nH]1
Label Value: false (0)
//
Molecule: COc1ccc(CCN(C)CCCC(C#N)(c2cc(OC)c(OC)c(OC)c2)C(C)C)cc1OC (stereo unspecified)
Label Value: true (1)
//
Molecule: CNc1ccc([N+](=O)[O-])c(Nc2ccc3[nH]ncc3c2)n1
Label Value: true (1)
//
Molecule: S=c1ssc2c1CCC2
Label Value: false (0)
//
Molecule: CCNC1(C(N)=O)CCN(c2ncnc3c2nc(-c2ccccc2Cl)n3-c2ccc(Cl)cc2)CC1
Label Value: true (1)
//
Molecule: CCCCCCCCCCCCCCCC[N+](C)(C)Cc1ccccc1
Label Value: true (1)
//
Molecule: C=CC(=O)Nc1cc(Nc2nccc(-c3c[nH]c4ccccc34)n2)c(OC)cc1N(C)CCN(C)C
Label Value: true (1)
//
Molecule: OCC(CO)(CO)NCC(O)Cn1c2ccc(Cl)cc2c2cc(Cl)ccc21 (stereo unspecified)
Label Value: true (1)
//
Molecule: O=C1NCCN1CCN1CCC(c2cn(-c3ccc(F)cc3)c3ccc(Cl)cc23)CC1
Label Value: true (1)
//
Molecule: CC[C@H](CO)Nc1nc(Nc2cccc(-c3ccccn3)c2)c2ncn(C(C)C)c2n1
Label Value: true (1)
//
Molecule: Clc1ccccc1CNCC1CCC(CNCc2ccccc2Cl)CC1 (stereo unspecified)
Label Value: true (1)
//
Molecule: CC[C@H](CC[C@@H](C)[C@H]1CC[C@H]2[C@@H]3CC=C4C[C@@H](O)CC[C@]4(C)[C@H]3CC[C@]12C)C(C)C
Label Value: false (0)
//
Molecule: CC(C)NCC(O)COc1ccc(COCCOC(C)C)cc1 (stereo unspecified)
Label Value: false (0)
//
Molecule: NS(=O)(=O)c1ccc(S(=O)(=O)Nc2cccc3c(Cl)c[nH]c23)cc1
Label Value: true (1)
//
Molecule: CC(C)=C[C@@H]1[C@H](CO[C@@H]2O[C@H](CO)[C@@H](O)[C@H](O)[C@H]2O)C1(C)C
Label Value: true (1)
//
Molecule: CC(C)(C)NCC(O)c1cc(O)cc(O)c1 (stereo unspecified)
Label Value: false (0)
//
Molecule: C/C(=N\N=C(N)N)c1cc(NC(=O)CCCCCCCCC(=O)Nc2cc(/C(C)=N/N=C(N)N)cc(/C(C)=N/N=C(N)N)c2)cc(/C(C)=N/N=C(N)N)c1
Label Value: true (1)
//
Molecule: COc1cc(O)cc(C)c1C(=O)O[C@@H]1[C@H](O)[C@@H](CO)O[C@H]1n1ccc(=O)[nH]c1=O
Label Value: true (1)
//
Molecule: Nc1nccn2c(C3CCC(C(=O)O)CC3)nc(-c3cc4cccc(Cl)c4[nH]3)c12 (stereo unspecified)
Label Value: true (1)
//
Molecule: N#CCNC(=O)c1ccc(-c2ccnc(Nc3ccc(N4CCOCC4)cc3)n2)cc1
Label Value: true (1)
//
Molecule: C=C1CCC2C(C)(C(=O)O)CCCC2(C)C1CC/C(=C\CO)CO (stereo unspecified)
Label Value: false (0)
//
Molecule: CC(C)=CCC/C(C)=C/CO[C@@H]1O[C@H](CO)[C@@H](O)[C@H](O)[C@H]1O
Label Value: false (0)
//
Molecule: COc1cc(COC2OC(CO)C(O)C(O)C2O)cc(OC)c1O (stereo unspecified)
Label Value: false (0)
//
Molecule: COc1ccc(S(=O)(=O)N(C(C)=O)c2ccccc2/C=C/c2cc[n+]([O-])cc2)cc1
Label Value: true (1)
